Record form. Attribute: pIC50. Fill in for each entry.
STUDY TARGET: Gag-Pol polyprotein (Human immunodeficiency virus type 1 group M subtype B (isolate HXB2)) (UniProt P04585)
TEST PROTOCOL: RNase H inhibition, HIV 1 Gag Pol polyprotein, FRET biochemical assay, screening (AID 372)
SETTINGS: HIV-1 RT RNase H, FRET RNA/DNA substrate fluorescence
pIC50 (log units): -log10 of the concentration in mol/L.

Return reported pIC50; argument: Cc1ccc(N2C(=O)/C(=C/c3ccc(O)c(O)c3)SC2=S)cc1C
4.92

Would you mind telling me what pIC50 value was observed for Cc1sc(NC(=O)Cc2ccccc2)c(C(N)=O)c1C ?
5.10

Value lookup for pIC50; key = COc1cc(C=O)ccc1OCCCOc1cccc(Oc2ccccc2)c1
4.00

Sample CCOc1ccc(C(=O)Nc2ccc3c(c2)C(=O)c2ccccc2C3=O)cc1 — what was its pIC50?
5.10

###

STUDY TARGET: Gag-Pol polyprotein (Human immunodeficiency virus type 1 group M subtype B (isolate HXB2)) (UniProt P04585)
TEST PROTOCOL: RNase H inhibition, HIV 1 Gag Pol polyprotein, FRET biochemical assay, screening (AID 372)
SETTINGS: HIV-1 RT RNase H, FRET RNA/DNA substrate fluorescence
Activity calls are given as the source filed them. Rule as the data show it: active = inhibition above about 50%; inactive = the rest.
Choose one outcome from this list and give only that: active, inactive

For this molecule, state the assay outcome: CCOc1ccc(NC(=O)c2c(NC(=O)c3ccco3)sc3c2CCCCC3)cc1
active

Assay result, entry CC1=NN(c2ccc(S(N)(=O)=O)cc2)C(=O)/C1=C/c1ccc(-c2ccc(Cl)cc2Cl)o1 — outcome?
active

Dear all, I need the recorded test outcome for COc1ccc(N2C(=O)/C(=C/c3ccc(I)o3)C(=O)NC2=S)cc1 , thank you.
active

Which outcome did this test record for the molecule CCOc1ccc(N2C(=O)/C(=C/c3ccc(Br)o3)C(=O)NC2=S)cc1 ?
active

// return assay outcome for O=C(Nc1sc2c(c1C(=O)Nc1cccc3ccccc13)CCCCC2)c1ccccc1F
inactive

What classification did NC(=O)c1c(NC(=O)COc2ccccc2)sc2c1CCCCC2 end up with in this test?
inactive

Call for entry Cc1ccc(-c2cc(C(=O)Nc3sc(C(=O)OC(C)C)c(C)c3C(N)=O)c3ccccc3n2)s1 :
inactive

How was COc1ccc2c(c1)N(C(=O)CN1C(=O)c3ccccc3C1=O)C(C)(C)c1ssc(=S)c1-2 classified in this test?
active

Recorded call for O=C1C=C/C(=N\S(=O)(=O)c2cc(Cl)ccc2Cl)C=C1Cl ?
active

Could you please tell me the result logged for O=c1[nH]c(=S)n(-c2ccccc2F)c(O)c1C=C1C=CC=N1 in this assay?
active

###

STUDY TARGET: Gag-Pol polyprotein (Human immunodeficiency virus type 1 group M subtype B (isolate HXB2)) (UniProt P04585)
TEST PROTOCOL: RNase H inhibition, HIV 1 Gag Pol polyprotein, FRET biochemical assay, screening (AID 372)
SETTINGS: HIV-1 RT RNase H, FRET RNA/DNA substrate fluorescence
Active and inactive are the calls of the source. Cut-off read from the data, not from the text of the source: active = inhibition above about 50%; inactive = the rest.
Assign a class; possible classes are active, inactive

Please let me know the test result on file for CCOc1ccc(C2=CC(=O)C=CC2=O)cc1 .
active

Entry Cc1cc(-c2ccc(C=C3C(=O)NC(=S)NC3=O)o2)c([N+](=O)[O-])cc1C : call = ?
active

Which outcome did this test record for the molecule Cc1ccc(C)n1-c1ccc(O)c(C(=O)O)c1 ?
active

Identify the outcome logged in this assay for the molecule shown: Cc1cc(Cl)ccc1OCC(=O)Nc1sc(C)c(C)c1C(N)=O
active

Entry CC(C)OC(=O)c1cc(O)c(O)c(O)c1 : call = ?
active

Assay outcome for CC1=C(C)CC(C(=O)Nc2ccc(N3C(=O)c4ccccc4C3=O)cc2)C(C(=O)O)C1 (stereo not given) : what was it?
active

# fetch the recorded call for Cc1ccc(NC(=O)c2c(NC(=O)C(F)(F)F)sc(-c3ccccc3)c2C)c(C)c1 here
active

Record lookup: outcome of this test for O=C1Nc2ccc(I)cc2C1(O)N1CCOCC1 (stereo not given) ?
active

// outcome(item) with item = N#Cc1c(N)nc(SCC(=O)c2ccc(O)c(O)c2)c(C#N)c1-c1ccc(O)cc1
active

Query: recorded result category for COc1ccc(C(=O)NC(=S)Nc2ccc3nn(-c4ccc(C)c(Cl)c4)nc3c2)cc1[N+](=O)[O-] in this test
active

// param item: Cc1c(Cl)ccc2c1NC(C(=O)O)C1CC=CC21 (stereo not given) ; yields the recorded call
active

# lookup: test call for Cc1ccc(-c2c(C#N)c(SCC(=O)c3ccc(O)c(O)c3)nc3c2CCCC3)o1
active

Short answer needed: outcome of this test for O=C1NC(=S)N(c2ccccc2F)C(=O)C1=Cc1ccco1 ?
active

Please let me know the test result on file for O=C1NC(=S)N(c2ccc(Cl)cc2)C(=O)/C1=C/c1ccco1 .
active

// outcome(item) with item = Cc1ccc(C)n1-c1ccc(SCC(=O)O)cc1
active

Dear colleague, could you share the recorded outcome for O=C1C=CC(=O)C(c2cccc(Cl)c2)=C1 when you have a moment?
active

What did this assay record as the result for Cc1cc(C)c2c(=O)[nH]c(SCC(=O)c3ccc(O)c(O)c3)nc2n1 ?
active

Kindly provide the recorded test outcome for the following molecule: CCC(=O)Nc1sc2c(c1C(=O)Nc1ccc(OC)cc1)CCCCC2
inactive

Test call, this molecule: Cc1ccc(S(=O)(=O)/N=C2\C=C(Sc3ncn[nH]3)C(=O)c3ccccc32)cc1
active

What call does the record list for Cc1ccc(-n2c(/C=C/c3ccc(O)c(O)c3)nc3ccccc3c2=O)cc1 ?
active

Recorded test outcome, item Cc1cc(-c2ccco2)c(C#N)c(SCC(=O)c2ccc(O)c(O)c2)n1
active

// param item: Cc1ccc(S(=O)(=O)N=C2C=CC(=O)C=C2)c(C)c1 ; yields the recorded call
active

What call does the record list for Cc1sc(NC(=O)C2CC3CCC2C3)c(C(N)=O)c1C (stereo not given) ?
active

For COC(=O)c1c(N)sc(C(=O)Nc2ccc(OC)cc2)c1C , what call appears in the results of this test?
active

Fill in: this test's call for O=C1/C(=C/c2ccc(O)c(O)c2)SC(=S)N1C1CCCCC1 is ___
active

Each molecule tested received a call. Report the one for O=c1oc2ccccc2c(O)c1/C=C1\C=Nc2ccccc21 .
active

Please let me know the test result on file for Cc1ccccc1-n1c(O)c(C=C2C=CC=N2)c(=O)[nH]c1=S .
active

What did the test return for Cc1sc(NC(=O)c2cccc([N+](=O)[O-])c2)c(C(N)=O)c1C ?
inactive

# outcome recorded in this test, key = O=C1C(Cl)=C/C(=N\S(=O)(=O)c2ccccc2)C(Cl)=C1Cl
active

Identify the outcome logged in this assay for the molecule shown: O=S(=O)(Nc1cccc(C(F)(F)F)c1)c1ccc2ccccc2c1
active

What did the test return for Cc1ccc(NC(=O)c2c(NC(=O)c3ccccc3F)sc3c2CCCCC3)cc1 ?
inactive

Hi team, can someone confirm the assay call for O=C(Cc1ccccc1Cl)c1ccc(O)c(O)c1O ?
active

Please let me know the test result on file for O=C1NC(=O)/C(=C/c2ccc(-c3ccc(O)c(C(=O)O)c3)o2)S1 .
active

What was the test verdict on COc1ccccc1NC(=O)c1c(NC(=O)Cc2ccccc2)sc2c1CCCCC2 ?
inactive

// param item: Cc1ccc(S(=O)(=O)/N=C2\C=CC(=O)C=C2Cl)cc1 ; yields the recorded call
active

Would you mind telling me which call this test gave Cc1sc(NC(=O)C2CCCO2)c(C(N)=O)c1C (stereo not given) ?
active

I'd appreciate the recorded outcome for CCOc1ccc(N2C(=O)/C(=C/c3ccc(I)o3)C(=O)NC2=S)cc1 from this test.
active

# fetch the recorded call for Cc1sc(NC(=O)c2ccc3c(c2)OCO3)c(C(N)=O)c1C here
inactive

Answer briefly: the call reported for O=C(Nc1ccc(N2CCN(C(=O)c3ccccc3)CC2)cc1)c1ccc(-c2ccccc2)cc1 in this assay.
active

Hi, do you know how O=C1C=CC(=NS(=O)(=O)c2ccc(Cl)c([N+](=O)[O-])c2)C=C1 came out in this test?
active

Identify the outcome logged in this assay for the molecule shown: O=C1NC(=S)S/C1=C/c1cccc(OCc2ccc(Cl)c(Cl)c2)c1
active

Each molecule tested received a call. Report the one for Cc1cccc(NC(=O)c2c(NC(=O)c3ccc([N+](=O)[O-])cc3)sc3c2CCCC3)c1 .
active

State the result this test recorded for Oc1ccc(/C=N/Nc2nncc(-c3ccccc3)n2)c(O)c1O .
active

Assay outcome for COc1cccc2cc(C(N)=O)c(=O)oc12 : what was it?
active

Test call for this molecule, please: O=C(O)c1cc(-c2ccc(/C=C3/Sc4ccccc4C3=O)o2)ccc1O
active
